# protocol description: in vitro
# Parameters: Viability of infected HeLa host cells, resazurin conversion, bulk resorufin fluorescence relative to DMSO
# assay setup: human, hela cells; bulk resorufin, mean of 2
Listing of recorded viability at 28.5 h, 1 µM by entry.

# molecule, viability at 28.5 h, 1 µM
data = [
    ("O=C(N/N=C/c1ccc(Sc2cccc3cccnc23)o1)c1cccc(F)c1", "101%"),
    ("Fc1cc(CN2CCC3(CC2)OCCc2c3[nH]c3ccc(Br)cc23)cc(F)c1F", "98.2%"),
    ("CCCn1c(NC(=O)C(C)Oc2ccc(Cl)cc2Cl)nc2ccccc21 (centres unmarked)", "88%"),
    ("Cc1c(C(=O)Nc2ccc(Cl)cc2)sc2c1C(c1cccnc1)CC(=O)N2 (centres unmarked)", "101%"),
    ("Cc1ccc2[nH]c(-c3cccc(NC(=O)c4cccc(CN5CCCC5=O)c4)c3)nc2c1", "93%"),
]

====

# protocol description: in vitro
# assay setup: human, hela cells, % viability
In this section we review reported viability at 28.5 h, 10 µM values for a set of molecules.
assay endpoint: viability at 28.5 h, 10 µM (%)

# molecule, unit info, numeric readout
records = [
    ("O=[N+]([O-])c1cccc(-c2ccc(OC3CCNCC3)cc2)c1 [CBK126465T]", "%", 98.8),
    ("O=C(O)CNS(=O)(=O)c1ccc2ccccc2c1 [CBK034460]", "%", 94.1),
    ("Cc1nc(-c2cccnc2)[nH]c(=O)c1CC(=O)N(C)C1CCCC1 [CBK304907]", "%", 83),
    ("Cc1occc1C(=O)NC(C)c1ccc2c(c1)OCO2 (centres unmarked) [CBK268153]", "%", 105),
    ("Cc1csc(C2CN(Cc3ccn(C)c(=O)c3)CCO2)n1 (centres unmarked) [CBK305763]", "%", 91.4),
    ("CC(=O)Nc1ccc(/N=C/c2ccc(Cl)cc2)cc1 [CBK015166]", "%", 92.3),
    ("CCCC(=O)NC(c1ccc(OC)cc1)c1cc(Cl)c2cccnc2c1O (centres unmarked) [CBK293944]", "%", 87.4),
    ("Cc1cc2occ(CC(=O)NC3CCCN(C)C3)c2cc1C (centres unmarked) [CBK282611]", "%", 93.1),
    ("OCC1OC(n2cnc3c(S)ncnc32)C(O)C1O (centres unmarked) [CBK012260]", "%", 64.5),
    ("N#CC(c1ccc(O)cc1)N1CCOCC1 (centres unmarked) [CBK261659]", "%", 116),
    ("CC1CC(C)CN(C(=O)Cn2c(-c3nonc3N)nc3ccccc32)C1 (centres unmarked) [CBK264694]", "%", 89.7),
    ("O=C(c1cnc(-c2ccccc2)c(-c2cccnc2)c1)N1CCC(S(=O)(=O)c2ccccc2)C1 (centres unmarked) [CBK036685]", "%", 103),
    ("CCCNC(=O)c1cc(C2CCCN(Cc3ccccc3)C2)no1 (centres unmarked) [CBK283388]", "%", 98),
    ("COc1nccnc1OC1CCNCC1 [CBK073919T]", "%", 100),
]

====

Known viability at 28.5 h, 10 µM of a selection of molecules
# protocol description: in vitro
# assay setup: human, hela cells, % viability

# molecule, viability at 28.5 h, 10 µM, %
records = [
    ("Fc1ccc(-c2cc(CC3(NCc4ccc5c(c4)OCO5)COC3)no2)cc1 [CBK289654]", 109),
    ("Cc1csc2c(C3CCN(C(=O)c4cccnc4)CC3)nc(C)n12 [CBK285242]", 85.1),
    ("COC1C(O)C(CO)OC1n1cnc2c(=O)[nH]c(N)nc21 (centres unmarked) [CBK201324]", 96.2),
    ("COc1cccc(S(=O)(=O)Nc2nn(Cc3ccc(C)cc3)c3ccccc23)c1 [CBK048043]", 89.8),
    ("O=C(CN1CCOCC1)c1ccc(O)o1 [CBK019286]", 95.4),
    ("Cc1ccc(S(=O)(=O)NC[C@H]2C[C@@H]3CC[N@]2C[C@@H]3CN2CCOCC2)cc1 [CBK288758]", 94.2),
    ("Cc1ccc(C)c(NC(=O)CCc2c(C)[nH]c3ncnn3c2=O)c1 [CBK304646]", 94.5),
    ("O=C(c1ccccc1F)N1C[C@H](c2ccsc2)[C@H]2CN(Cc3ccsc3)CC[C@H]21 [CBK285661]", 107),
    ("O=C(O)C[C@]1(C(=O)Nc2ccc(F)cc2)CC(/C=C/c2ccccc2)=NO1 [CBK286608]", 87.3),
    ("COc1cc(NC(=O)CSc2nncn2C)c(OC)cc1Cl [CBK270307]", 86.4),
    ("COc1cc(C(=O)N2CCN(C(=O)CC(C)C)CC2)cc(OC)c1OC [CBK003604]", 99.2),
    ("Cc1cc(=O)oc2ccc(OCC(=O)Nc3ccc(S(=O)(=O)O)cc3)cc12 [CBK263185N]", 100),
    ("COc1ccnc(N2CCc3c(ncn3C3CC3)C2)n1 [CBK304816]", 95.7),
    ("COc1cc(OC)nc(CN2C(=O)C3(CC(=O)N(CCCN4C(=O)c5ccccc5C4=O)C3=O)c3cc(C)ccc32)n1 (centres unmarked) [CBK075992]", 91.5),
    ("Cn1cnc([N+](=O)[O-])c1Oc1cccc(C(F)(F)F)c1 [CBK002790]", 87),
    ("Cn1cc([C@H]2C[C@@H](O)[C@@H](CO)O2)c(=O)n(C)c1=O [CBK201272]", 97.3),
    ("Cc1sc(NC(=O)C(F)(F)F)c(C(N)=O)c1C [CBK027775]", 99.4),
]
